From: patent US7803801B2

tested on: cultured human mast cells; test: Degranulation inhibition test using cultured human mast cells (IgE cross-linking, β-Hexosaminidase release); type: cell-based; conditions: Mast cell; cultured human mast cells, anti-hIgE stimulation, β-Hexosaminidase index, average; read-out: human degranulation ave. IC50
pIC50: −log10 of the molar value.
I'd be grateful if you could share measured pIC50 for these entries.

Past entries and their recorded results:
compound: Cc1ccnc(Nc2cccc(-c3cnc([C@H](C)NC(=O)CC(=O)O)s3)n2)c1
pIC50: < 6.00
--
compound: CC(=O)NCC(=O)N[C@@H](C)c1ncc(-c2cccc(Nc3cc(C)ccn3)n2)s1
pIC50: < 6.00
--
compound: Cc1ccnc(Nc2cccc(-c3cnc(C4CCN(C(=O)NCCO)CC4)s3)n2)c1
pIC50: 6.00 to 7.00
--
compound: Cc1ccnc(Nc2cccc(-c3cnc(CN)s3)n2)c1
pIC50: < 6.00
--
compound: Cc1ccnc(Nc2cccc(-c3cnc(CNC[C@H]4CC[C@H](CO)CC4)s3)n2)c1
pIC50: < 6.00

Give pIC50 for all compounds that follow.
1. Cc1ccnc(Nc2cccc(-c3cnc(CC4CCC(C(=O)O)CC4)s3)n2)c1 (centres unmarked)
2. Cc1ccnc(Nc2cccc(-c3cnc(C4CCNCC4)s3)n2)c1
3. Cc1ccnc(Nc2cccc(-c3cnc(CNC(=O)NCC(=O)O)s3)n2)c1

-- reply
["6.00 to 7.00", "6.00 to 7.00", "< 6.00"]

* * *

test system: cultured human mast cells; assay: Degranulation inhibition test using cultured human mast cells (IgE cross-linking, β-Hexosaminidase release); assay type: cell-based; conditions: Mast cell; cultured human mast cells, anti-hIgE stimulation, β-Hexosaminidase index, average; read-out: human degranulation ave. IC50
Record form. Attribute: IC50. Fill in for each entry.

Here is how some molecules turned out for IC50.
molecule: Cc1ccnc(Nc2cccc(-c3cnc(N4CCN(C)C(=O)C4)s3)n2)c1 [Compound A-1]
IC50: 100 to 1000 nM
--
molecule: CCOC(=O)CC(C)(C)c1ncc(-c2cccc(Nc3cc(C)ccn3)n2)s1 [Compound A-144]
IC50: > 1000 nM
--
molecule: Cc1ccnc(Nc2cccc(-c3cnc(C(=O)NC(C)CO)s3)n2)c1 (centres unmarked) [Compound A-54]
IC50: > 1000 nM
--
molecule: Cc1ccnc(Nc2cccc(-c3cnc([C@@H]4CCCC(=O)N4C)s3)n2)c1 [Compound A-364]
IC50: 100 to 1000 nM

Give IC50 for each of the items listed below.
1. Cc1ccnc(Nc2cccc(-c3cnc(C(=O)NCC(C)(C)CO)s3)n2)c1 [Compound A-62]
2. Cc1ccnc(Nc2cccc(-c3cnc(CCC4CCC(=O)CC4)s3)n2)c1 [Compound A-172]

-- reply
1: > 1000 nM; 2: 100 to 1000 nM

Please go through the list and note IC50 for each molecule.
1. COC(=O)[C@H]1CC[C@H](c2ncc(-c3cccc(Nc4cc5ccccc5cn4)n3)s2)CC1 [Compound A-213]
2. CCC(=O)Nc1nc(C)c(-c2cccc(Nc3cc(C)ccn3)n2)s1 [Compound A-19]

-- reply
1. 100 to 1000 nM
2. 100 to 1000 nM

* * *

For each of the molecules below, state its pIC50.
molecular target: GST-Syk Full Protein (human) (Homo sapiens); test: Syk kinase inhibition test (HTRF method); type: biochemical; settings: Tables 1-x, compounds A; read-out: sykHTRF ave IC50
pIC50: −log10 of the molar value.

item_smiles: Cc1ccnc(Nc2cccc(-c3cnc(N4CCCc5ccc(C(=O)O)cc54)s3)n2)c1
pIC50: 6.00 to 7.00
//
item_smiles: Cc1ccnc(Nc2cccc(-c3cnc(N4CCC(NC(=O)CO)CC4)s3)n2)c1
pIC50: > 7.00
//
item_smiles: Cc1ccnc(Nc2cccc(-c3cnc(N(C)CC(=O)O)s3)n2)c1
pIC50: 6.00 to 7.00

Now, please, on to the next molecule.
-- ask Need pIC50 of `Cc1ccnc(Nc2cccc(-c3cnc(N4CCC(NS(C)(=O)=O)CC4)s3)n2)c1` , thanks.
-- reply > 7.00

* * *

I'd be grateful if you could share measured pIC50 for these entries.
tested on: cultured human mast cells; assay: Degranulation inhibition test using cultured human mast cells (IgE cross-linking, β-Hexosaminidase release); type: cell-based; settings: Mast cell; Tables 1-x, compounds A; cultured human mast cells; read-out: human degranulation ave. IC50
pIC50: −log10 of the molar value. Structures can show the parent of a compound that is named as a salt.

compound: Cc1ccnc(Nc2cccc(-c3cnc(N4CCc5c(cccc5C(=O)O)C4)s3)n2)c1 [Compound A-582]
pIC50: < 6.00
--
compound: Cc1ccnc(Nc2cccc(-c3cnc(N(C)[C@H]4CC[C@H](O)CC4)s3)n2)c1 [Compound A-480]
pIC50: 6.00 to 7.00
--
compound: CNC(=O)C1CCCN(c2ncc(-c3cccc(Nc4cc(C)ccn4)n3)s2)C1 (stereo not shown) [Compound A-477]
pIC50: 6.00 to 7.00
--
compound: Cc1ccnc(Nc2cccc(-c3sc(N4CCC(C(N)=O)CC4)nc3C)n2)c1 [Compound A-429]
pIC50: < 6.00

Would you mind giving pIC50 for every compound in the list below?
1. Cc1ccnc(Nc2cccc(-c3cnc(N(C)Cc4ccc(C(=O)O)cc4Cl)s3)n2)c1 [Compound A-604, dihydrochloride]
2. CC(=O)c1ccnc(Nc2cccc(-c3cnc(N4CC[C@@H](O)C4)s3)n2)c1 [Compound A-549]

-- reply
["6.00 to 7.00", "6.00 to 7.00"]

Provide the reported pIC50 of each entry below, same order.
1. Cc1ccnc(Nc2cccc(-c3cnc(CN4C(=O)COCC4=O)s3)n2)c1 [Compound A-387]
2. Cc1ccnc(Nc2cccc(-c3cnc(N(C)C4CCN(C(=O)CCC(=O)O)CC4)s3)n2)c1 [Compound A-553]
3. O=C(O)CC1CCN(c2ncc(-c3cccc(Nc4ccccn4)n3)s2)CC1 [Compound A-573, dihydrochloride]
4. Cc1ccnc(Nc2cccc(-c3cnc(CNC(=O)c4c[nH]cn4)s3)n2)c1 [Compound A-396]

-- reply
1: 6.00 to 7.00; 2: < 6.00; 3: < 6.00; 4: < 6.00

Dear colleague, could you send me pIC50 for each of the items below? Thanks.
1. CO[C@@H]1CCN(c2ncc(-c3cccc(Nc4cc(C)ccn4)n3)s2)C1 [Compound A-490]
2. Cc1ccnc(Nc2cccc(-c3cnc(N(C)CC(N)=O)s3)n2)c1 [Compound A-556]
3. Cc1ccnc(Nc2cccc(-c3cnc(N4CCOCC4)s3)n2)c1 [Compound A-417]

-- reply
6.00 to 7.00
> 7.00
6.00 to 7.00

Parameters: items (list). Returns: pIC50 for each item.
1. CC(O)c1ccnc(Nc2cccc(-c3cnc(N4CC[C@@H](O)C4)s3)n2)c1 (stereo partly shown) [Compound A-554]
2. Cc1ccnc(Nc2cccc(-c3cnc(COCC(=O)N4CC(=O)NC(=O)C4)s3)n2)c1 [Compound A-393]
3. Cc1ccnc(Nc2cccc(-c3cnc(N4CCN(C(=O)CO)CC4)s3)n2)c1 [Compound A-439]

-- reply
1. 6.00 to 7.00
2. < 6.00
3. > 7.00

* * *

Please respond with reported IC50 for every item in the list.
system: cultured human mast cells; experiment: Degranulation inhibition test using cultured human mast cells (IgE cross-linking, β-Hexosaminidase release); type: cell-based; settings: Mast cell; cultured human mast cells, anti-hIgE stimulation, β-Hexosaminidase index, average; read-out: human degranulation ave. IC50

Below: 7 compounds and their reported IC50.
item_smiles: CC(=O)N[C@@H](CCC(=O)O)c1ncc(-c2cccc(Nc3cc(C)ccn3)n2)s1
observed_value: > 1000 nM

item_smiles: COc1ccnc(Nc2cccc(-c3cnc([C@H]4CC[C@H](C(N)=O)CC4)s3)n2)c1
observed_value: < 100 nM

item_smiles: COc1ccc(C[C@H](N)c2ncc(-c3cccc(Nc4cc(C)ccn4)n3)s2)cc1
observed_value: > 1000 nM

item_smiles: Cc1ccnc(Nc2cccc(-c3cnc(CC(C)(C)NS(C)(=O)=O)s3)n2)c1
observed_value: < 100 nM

item_smiles: Cc1ccnc(Nc2cccc(-c3cnc([C@H](COCc4ccccc4)NC(=O)OC(C)(C)C)s3)n2)c1
observed_value: > 1000 nM

item_smiles: COC(=O)C(C)(C)NC(=O)c1ncc(-c2cccc(Nc3cc(C)ccn3)n2)s1
observed_value: > 1000 nM

item_smiles: Cc1ccnc(Nc2cccc(-c3cnc(CCO)s3)n2)c1
observed_value: 100 to 1000 nM

Would you kindly look at the next entry?
-- ask Can you look up IC50 on cultured human mast cells for `Cc1ccnc(Nc2cccc(-c3cnc(C(=O)NC(C)(C)C(=O)O)s3)n2)c1` ?
-- reply > 1000 nM

* * *

What pIC50 was measured for each of the following?
target: GST-Syk Full Protein (human) (Homo sapiens, UniProt P43405); assay: Syk kinase inhibition test (HTRF method); format: biochemical; conditions: Tables 2-x, thiophene compounds B; read-out: sykHTRK ave IC50
pIC50: −log10 of the molar value.

item_smiles: Cc1ccnc(Nc2cccc(-c3ccc(-c4cc(C)no4)s3)n2)c1
pIC50: 6.00 to 7.00

Go through the items and report each one's pIC50.
1. Cc1ccnc(Nc2cccc(-c3ccc(/C(N)=N/O)s3)n2)c1
2. Cc1ccnc(Nc2cccc(-c3ccc(CNC(=O)[C@H]4CC[C@H](C(=O)O)CC4)s3)n2)c1
3. CONC(=O)c1ccc(-c2cccc(Nc3cc(C)ccn3)n2)s1
4. CNCc1ccc(-c2cccc(Nc3cc(C)ccn3)n2)s1
5. CC(=O)c1ccc(-c2cccc(Nc3cc(C(=O)O)ccn3)n2)s1
6. CC(=O)c1ccc(-c2cccc(Nc3cc(C(N)=O)ccn3)n2)s1

-- reply
["> 7.00", "6.00 to 7.00", "6.00 to 7.00", "6.00 to 7.00", "< 6.00", "6.00 to 7.00"]

For each of the items listed, what is its pIC50?
1. Cc1ccnc(Nc2cccc(-c3sccc3C)n2)c1
2. Cc1ccnc(Nc2cccc(-c3sc([N+](=O)[O-])cc3C)n2)c1

-- reply
["6.00 to 7.00", "< 6.00"]
